Values compiled from PubChem BioAssay.

Documented inhibition across a set of molecules
assay: growth inhibition, single agents and combos, CRL2098, cell-based, BGB or cisplatin IC20 combos, synergistic combos for chromothripsis tumors (AID 1671454); conditions: CRL2098 osteosarcoma cells, drug combinations, at 0.5 µM, active compounds read high;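 also: cells exposed for 96 h before readout; 0% = vehicle DMSO and 100% = killing by high DMSO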
property-name: inhibition (%)

>>> recorded_value("C[C@]12CCCN1CC1=NNC(=O)c3cc(F)cc4[nH]c2c1c34")
-35.2
>>> recorded_value("O=C(CCCCCCNC(=O)c1cnc(N(c2ccccc2)c2ccccc2Cl)nc1)NO")
-36.3
>>> recorded_value("CN[C@@H]1CN(c2ccc3c(=O)c(C(=O)O)cn(-c4nccs4)c3n2)C[C@H]1OC")
18.1
>>> recorded_value("O=C(COc1cccc2c(=O)[nH]ccc12)c1ccccc1")
-77.2
>>> recorded_value("O=c1cc(N2CCOCC2)oc2c(-c3cccc4c3sc3ccccc34)cccc12")
-62.4
>>> recorded_value("COc1ccc(C(=O)CC2(O)C(=O)Nc3c(Cl)ccc(Cl)c32)cc1 (stereo unspecified)")
-4.98
